B1: NF2 (merlin) isoform 7, human, full length (507 aa, lacks exons 2-3 = isoform-1 residues 39-121; exon-16 C-terminus), P35240-4 (parent)
chain: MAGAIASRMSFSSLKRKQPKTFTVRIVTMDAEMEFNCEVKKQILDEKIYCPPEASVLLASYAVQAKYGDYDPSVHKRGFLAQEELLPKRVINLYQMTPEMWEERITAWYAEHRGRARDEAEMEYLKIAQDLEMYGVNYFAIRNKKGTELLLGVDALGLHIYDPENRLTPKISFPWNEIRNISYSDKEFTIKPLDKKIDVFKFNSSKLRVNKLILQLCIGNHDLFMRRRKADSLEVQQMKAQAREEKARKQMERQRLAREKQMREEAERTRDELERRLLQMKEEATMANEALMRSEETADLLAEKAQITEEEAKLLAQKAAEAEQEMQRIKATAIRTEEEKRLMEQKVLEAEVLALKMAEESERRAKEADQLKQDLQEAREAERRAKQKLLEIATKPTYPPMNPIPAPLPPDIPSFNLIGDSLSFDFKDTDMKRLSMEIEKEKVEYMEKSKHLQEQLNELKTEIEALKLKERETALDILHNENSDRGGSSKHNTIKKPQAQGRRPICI

# Variants of: B1
# protocol: reverse yeast two-hybrid deep mutational scan (rY2H-seq): NF2 isoform 7 mutant library as bait mated with wild-type prey strains; selection on medium lacking adenine for non-interacting pairs; NextSeq paired-end sequencing; enrichment vs …
# setup_conditions: with NF2 C-terminal domain (wild type; homomeric NF2-NF2 interaction), P35240; yeast diploids after mating (RBait_S3 x RPrey_S3), 30 °C, selection for reporter genes on NB agar; human ABL2 co-expressed as the kinase-dead K35M mutant …; HIGHER = WEAKER BINDING (the opposite of display enrichments): higher = stronger loss of interaction: reverse Y2H selects yeast in which bait and prey do NOT interact (growth without adenine), so a …; hits-only table; partner unresolved; scale: rY2H score; numbering: uniprot, sequence starts at 1
measurement_type: enrichment
Give bare numbers.

mutation_spec=M122A measurement_type=enrichment result_value=2.37
mutation_spec=A365L measurement_type=enrichment result_value=2.32
mutation_spec=V56C measurement_type=enrichment result_value=3.78

Lab note: each variant below needs its enrichment filled in.
1. S489K
2. T394K
3. L58K
4. I329E
5. P19E
6. P174R
7. S73P

Return:
2.15
1.65
2.82
2.93
3.9
4.82
2.96

Lab note: each variant below needs its enrichment filled in.
1. W175E
2. E339T
3. R341L
4. S73L

Return:
1.97
2.08
1.59
3.01

Data origin, for the record: paper PMC10244618
